Entries and their TGI values follow.
Tested on: OVCAR-8 ovarian
test: NCI tumour cell line growth inhibition, 48 h

// below: answered compounds
{"compound": "Cc1c(C(=O)O)nc(/C=C/C(=O)O)[nH]c1=O", "recorded-value": "> 100 µM"}
{"compound": "Cc1cc(C)c(C2CC(O)C(CO)O2)cc1C (stereo not given)", "recorded-value": "> 100 µM"}
{"compound": "CC(=O)CC(=O)Nc1c(C)[c]([Hg][O]C(C)=O)c(C)[c]([Hg][O]C(C)=O)[c]1[Hg][O]C(C)=O", "recorded-value": "24.4 µM"}
{"compound": "C[C@H](O)CNc1cc(-c2[nH]c3cccnc3c2-c2ccc(F)cc2)ccn1", "recorded-value": "> 25 µM"}
{"compound": "COc1ccc2c(c1)CN1C(=N2)CSC1c1c(Cl)cccc1[N+](=O)[O-] (stereo not given)", "recorded-value": "> 100 µM"}

Requested read-out: TGI. Entry: `Cc1ccccc1C1=C/C(=C(\SS/C(C(=O)c2ccc(OCC(=O)O)c(Cl)c2Cl)=C2\C=C(c3ccccc3C)SS2)C(=O)c2ccc(OCC(=O)O)c(Cl)c2Cl)SS1`
77.1 µM

Here is the next compound: `CCCCCCCc1c(Cl)nc(Cl)nc1Cl`
5.18 µM

Here is the next compound: `Cc1ccc(-c2cc3c(NC(=O)C4CC4)ncnc3o2)cc1`
> 25 µM

Here is the next compound: `CNN1C(=O)c2c(N)c(C#N)c(-c3ccccc3)c(-c3ccccc3)c2C1=O`
> 100 µM

Here is the next compound: `CCOC(=O)c1sc2nc(SC)nc(N3CCCCC3)c2c1N`
> 100 µM

====

Tested on: UO-31 renal
test: NCI tumour cell line growth inhibition, 48 h
Where a SMILES comes first, the peptide text is derived from it. The star is where a group is joined. Boc = CC(C)(C)OC(=O)*
Entries and their TGI values follow.

{"compound": "CN(C)C(=O)Nc1c([N+](=O)[O-])cc(C(F)(F)F)cc1[N+](=O)[O-]", "TGI": "> 100 µM"}
{"compound": "C[N+](C)(C)CC(=O)N/N=C(/Cc1nc2ccc(Cl)cc2[nH]c1=O)C1=NS(=O)(=O)c2cc(S(N)(=O)=O)c(Cl)cc2N1", "TGI": "> 100 µM"}
{"compound": "CC(=O)CC(O)(C(F)(F)Cl)C(F)(F)Cl", "TGI": "> 10 µM"}
{"compound": "Nc1ccc2nc3n(c(=O)c2c1)CCCCC3", "TGI": "> 100 µM"}
{"compound": "CC1CCN(CCC(=O)CC(c2ccccc2)c2c(O)c3ccccc3oc2=O)CC1 (centres undefined)", "TGI": "> 100 µM"}
{"compound": "CC(NC(=O)OC(C)(C)C)C(=O)NC(Cc1ccccc1)C(=O)NCC(=O)O (stereo not drawn) (Boc-Ala-Phe-Gly-OH; configuration not given here)", "TGI": "> 100 µM"}
{"compound": "COC(=O)[C@@]12CCCC(=O)[C@@H]1[C@H]1CCC[C@H]12", "TGI": "> 100 µM"}
{"compound": "O=C1C(=C/C=C2/SC(c3ccccc3)(c3ccccc3)c3ccccc32)C(=O)c2ccccc21", "TGI": "> 100 µM"}

Quick check: TGI on UO-31 renal, item CC1=CCCC(C)(O)C2CC(CCC3(C)OC3CC1)C(C)C(=O)O2 (centres undefined) ?
> 100 µM
